Test system: Human primary T cells
Experiment: IL-2 ELISA, human primary T cell, anti-CD3+CD28+ (whole cell assay)
Assay type: cell-based
Details: Homo sapiens, T-cell, 24 h, human primary T cells stimulated with anti-CD3 + anti-CD28, 24 hours
Protocol: Human primary T cells were prepared as follows. […] Human primary T cells (100,000 cells per well) were pre-incubated with or without test compound in Yssel's medium for 1 hr at 37° C. […] Cells were incubated at 37° C. for 24 hours before 100 μL supernatants were harvested for quantification of IL-2 by ELISA using Human IL-2 Duoset ELISA Kit from R and D Systems, Cat. #DY202E. […]
pIC50: −log10 of the molar value.
Let's look at some compounds and their measured pIC50.

Some entries whose results are on file:
{"Compound": "CC1(C)CC(Nc2nc(Nc3cc(F)cc(OCCn4ccnn4)c3)ncc2F)CC(C)(C)N1", "Observed Result": "< 6.00"}
{"Compound": "CC(=O)N1CCC(Oc2ccc(Nc3ncc(F)c(NC4CC(C)(C)NC(C)(C)C4)n3)cc2F)CC1", "Observed Result": "< 6.00"}
{"Compound": "CC1(C)CC(Nc2nc(Nc3cccc(-c4nnnn4C4CC4)c3)ncc2F)CC(C)(C)N1", "Observed Result": "6.00 to 6.30"}

Q: Fill in: pIC50 of `CN1C(C)(C)CC(Nc2nc(Nc3ccc(OC4CCOCC4)c(OC(F)F)c3)ncc2F)CC1(C)C` is ___
Ans: > 6.60

Q: I'd like to know its pIC50. The compound in question is `CCOc1ccc(Nc2ncc(F)c(NC3CC(C)(C)NC(C)(C)C3)n2)cc1OC(F)F`
Ans: > 6.60

Q: For the compound shown here, `CN1C(C)(C)CC(Nc2nc(Nc3ccc(F)c(-c4nnnn4C)c3)ncc2F)CC1(C)C` , give the reported pIC50.
Ans: > 6.60

Q: Which measured pIC50 value corresponds to `CC1(C)CC(Nc2nc(Nc3cccc(-c4nnnn4CCN4CCOCC4)c3)ncc2F)CC(C)(C)N1` ?
Ans: < 6.00

Q: Form field: reported pIC50 of `CC1(C)CC(Nc2nc(Nc3ccc(OC4CCN(S(C)(=O)=O)CC4)c(OC(F)F)c3)ncc2F)CC(C)(C)N1`
Ans: 6.00 to 6.30

Q: So what does the record say about pIC50 for `CC(C)Oc1ncc(Nc2ncc(C#N)c(NC3CC(C)(C)NC(C)(C)C3)n2)cc1-c1nnnn1C(C)C` ?
Ans: < 6.00

Q: Using the record for `COCCn1nnnc1-c1cc(Nc2ncc(F)c(NC3CC(C)(C)N(C)C(C)(C)C3)n2)ccc1F` , report its pIC50.
Ans: 6.30 to 6.60

Q: What measured pIC50 goes with `CN1C(C)(C)CC(Nc2nc(Nc3ccc(OCCCn4cccc4)c(OC(F)F)c3)ncc2F)CC1(C)C` ?
Ans: > 6.60

Q: Please look up its pIC50: `CN1C(C)(C)CC(Nc2nc(Nc3ccc(OC4CCN(Cc5ccccc5)CC4)c(OC(F)F)c3)ncc2F)CC1(C)C`
Ans: 6.30 to 6.60

Q: Given the compound CC1(C)CC(Nc2nc(Nc3cc(F)c(OC4CCCN(S(C)(=O)=O)CC4)c(F)c3)ncc2F)CC(C)(C)N1 (stereo not drawn) , what is its reported pIC50?
Ans: < 6.00

Q: Any idea what pIC50 was measured for CN1C(C)(C)CC(Nc2nc(Nc3ccc(OC4CCCN(S(C)(=O)=O)CC4)c(OC(F)F)c3)ncc2F)CC1(C)C (stereo not drawn) ?
Ans: 6.30 to 6.60

Q: # query: pIC50 of entry [2H]C([2H])([2H])N1C(C)(C)CC(Nc2nc(Nc3ccc(OC4CCN(C(C)C)CC4F)c(OC(F)F)c3)ncc2F)CC1(C)C (stereo not drawn)
Ans: 6.30 to 6.60

Data credit: patent US9149475B2
